Where do these numbers come from? They come from the supplement of paper PMC12420376.

System: KURAMOCHI
Protocol text: drug sensitivity score (DSS2) on cancer cell count; higher = more sensitive; extreme values may be limits of the assay
Test conditions: co-cultured fibroblast: BJHTERT; 72 h
Measured endpoint: drug sensitivity score (DSS)
Report the figure in DSS without appending any unit label.

Here's what some known entries look like.
| Smiles code | drug sensitivity score [DSS] |
| --- | --- |
| CN1CCN(C(=O)c2ccc3cc(CCNc4ncnc5ccc(C#N)cc45)ccc3c2)CC1 | 1.1 |
| CO[C@H]1C[C@@H]2CC[C@@H](C)[C@@](O)(O2)C(=O)C(=O)N2CCCC[C@H]2C(=O)O[C@H]([C@H](C)C[C@@H]2CC[C@@H](OP(C)(C)=O)[C@H](OC)C2)CC(=O)[C@H](C)/C=C(\C)[C@@H](O)[C@@H](OC)C(=O)[C@H](C)C[C@H](C)/C=C/C=C/C=C/1C | 11.6 |
| C[C@H]1C[C@@H](n2c(Nc3ccc(OC(F)(F)F)cc3)nc3cc(CCC(=O)O)ccc32)CC(C)(C)C1 | 0 |

Turning now to a further record.
Exercise: Bench note: what drug sensitivity score did O=C(O)CC[C@H]1CC[C@@](c2cc(F)ccc2F)(S(=O)(=O)c2ccc(Cl)cc2)CC1 show?
Key: 0
